Test system: UO-31 renal
Assay: NCI tumour cell line growth inhibition, 48 h
Hi there, I'd appreciate the recorded TGI for every entry that follows.

Record excerpt, results attached:
Cc1ccc(O)c(C(=O)/C=C/c2ccccc2)c1; > 100 µM
O=[N+]([O-])c1ccc(NC(c2ccccc2)c2ccc3cccnc3c2O)cc1 (stereo unspecified); > 31.4 µM
Nc1nc(N)c2c(n1)NC(c1ccc(Cl)cc1)C1CCc3ccccc3C1=N2 (stereo unspecified); 17.4 µM
NC1=NN(c2ccccc2)C(=O)C1/C(=N\NC(=O)c1cc2ccccc2cc1O)C(=O)Nc1ccc(Cl)c(Cl)c1 (stereo unspecified); > 100 µM
Nc1ccc(Oc2ccc(C34CC5CC(C3)CC(c3ccc(Oc6ccc(N)c(O)c6)cc3)(C5)C4)cc2)cc1O; 3.23 µM
Cc1ccccc1N=C(c1ccccc1)C1C(=O)c2ccccc2C1=O; 47.4 µM
CCN1C(=O)N(CC)C2C1NN=c1s/c(=C\c3ccc(Br)cc3)c(=O)n12 (stereo unspecified); > 100 µM
CN1C(=O)c2c(c3c4ccccc4n(C)c3c3c2c2ccccc2n3C)C1=O; > 100 µM

Give TGI for each of the items listed below.
1. O=C(O)C(=Cc1ccc(-c2ccc([N+](=O)[O-])cc2)o1)C(=O)O
2. Nc1ncnc2c1ncn2Cc1ccc(CCl)cc1

["> 100 µM", "46.8 µM"]

Observed TGI on UO-31 renal for Cc1ccccc1C1SCc2nc3ccccc3n21 (stereo unspecified) , please.
> 100 µM

---

Test system: IGROV1 ovarian
Assay: NCI tumour cell line growth inhibition, 48 h
Hi there, I'd appreciate the recorded TGI for every entry that follows.

Record excerpt, results attached:
CN1C(=O)CC(CC(=O)C2CCCCC2=O)CC1=O (stereo not drawn); > 100 µM
O/N=C1/C(=C/c2ccc(Br)cc2)CCCC1C(NO)c1ccc(Br)cc1 (stereo not drawn); 32.4 µM
c1ccc(OCC[P+](c2ccccc2)(c2ccccc2)c2ccccc2)cc1; 11.8 µM
C[C@H]1O[C@@H](O[C@H]2[C@@H](O)C[C@H](O[C@H]3[C@@H](O)C[C@H](O[C@H]4CC[C@]5(C)C6CC[C@]7(C)[C@@H](C8=CC(=O)OC8)CC[C@]7(O)C6CC[C@@H]5C4)O[C@@H]3C)O[C@@H]2C)C[C@H](O)[C@@H]1O (stereo partly drawn); 2.22 µM
Cc1ccc(C2=C(c3ccccc3)C(O)(c3ccccc3)C(c3ccccc3)=C2c2ccc(C)cc2)cc1; > 100 µM

Give TGI for each of the items listed below.
1. CN1C(=O)c2c(c3c4ccccc4n(C)c3c3c2c2ccccc2n3C)C1=O
2. CCOC(=O)C1=C(C)NC(c2ccccc2)=C(C(=O)OCc2ccccc2)C1C#Cc1ccccc1 (stereo not drawn)

["> 100 µM", "> 100 µM"]

Which TGI reading was recorded for the compound COc1ccc(-c2oc(C=Nc3ccccc3)c([N+](=O)[O-])c2-c2ccc(OC)c(OC)c2)cc1OC ?
> 100 µM

---

Tested on: IGROV1 ovarian
Experiment: NCI tumour cell line growth inhibition, 48 h
quantityKind: TGI

Cc1c(-c2c(F)cc(C(N)=O)c3[nH]c4c(c23)CC[C@H](C(C)(C)O)C4)cccc1-n1c(=O)c2cccc(F)c2n(C)c1=O; > 100 µM

Give TGI for each of the items listed below.
1. CN(CCCNC(=O)c1[nH]nc2c1ccc1ccccc12)CCCNC(=O)c1[nH]nc2c1ccc1ccccc12
2. N#Cc1cc([N+](=O)[O-])ccc1NC(=O)C(=O)Nn1c(=S)[nH]c2ccccc2c1=O
3. Nc1ccc(Oc2ccc(C34CC5CC(C3)CC(c3ccc(Oc6ccc(N)c(O)c6)cc3)(C5)C4)cc2)cc1O
4. Cc1cccc(Nc2ncc(-c3ccccc3)o2)c1
5. Nc1nc(Cl)cc(OCC2(CO)CCCCC2)n1
6. Cn1c(=Nc2ccccc2[N+](=O)[O-])sc2ccccc21
7. COc1ccc(CC2OC3(CCCCC3)CC3CCCCN32)cc1 (stereo not given)
8. Cc1ccccc1N=C(c1ccccc1)C1C(=O)c2ccccc2C1=O

1. 30.9 µM
2. > 100 µM
3. 3.04 µM
4. > 25 µM
5. > 100 µM
6. > 100 µM
7. > 100 µM
8. 39.4 µM

Observed TGI on IGROV1 ovarian for O=C(Cn1cc(I)c(C(=O)NCC(O)CO)n1)NCC(O)CO (stereo not given) , please.
> 100 µM

---

Tested on: 786-0 renal
Test: NCI tumour cell line growth inhibition, 48 h
Hi there, I'd appreciate the recorded TGI for every entry that follows.

CCOC1=C2N=C(C(CC)c3ccc(F)cc3)N=C2C(=O)c2ccccc21 (stereo not drawn); > 100 µM
Nc1nc(Cl)cc(Oc2ccc(Cl)cc2)n1; > 100 µM
Nc1ncnc2c1ncn2Cc1ccc(CCl)cc1; 73.6 µM
O=c1oc2c(Cl)cc(Cl)cc2cc1-c1cn2c(n1)sc1ccccc12; > 100 µM
NS(=O)(=O)c1ccc(NC(=O)Nc2cccc3ccccc23)cc1; 38 µM

Give TGI for each of the items listed below.
1. N/C(=N/O)NOCCC(N)C(=O)O (stereo not drawn)
2. Cn1cc(-c2nc(-c3c[nH]c4ccccc34)cs2)c2cccnc21
3. CCC(/C(=N/NC(=O)C[N+](C)(C)C)c1ccccc1)C1OC(=O)c2ccccc21 (stereo not drawn)
4. CN1CN(c2ccccc2)C2(CCN(C(=O)OC(C)(C)C)CC2)C1=O
5. O=C(Nc1ccc(-c2cn3ccccc3n2)cc1)c1cc(Br)ccc1O
6. COc1ccc2nc3c(nc2c1)C(C)(C)C=C3c1ccc(Br)cc1

["> 100 µM", "49.4 µM", "> 100 µM", "> 100 µM", "> 100 µM", "> 100 µM"]

---

Tested on: NCI-H226 lung
Assay: NCI tumour cell line growth inhibition, 48 h
Hi there, I'd appreciate the recorded GI50 for every entry that follows.

Record excerpt, results attached:
CC(=O)Nc1ccc2c(c1)[nH]c(=O)c1cc(NC(C)=O)ccc12; > 100 µM
COc1ccc(N2CCN(c3nc(-c4ccccn4)nc4sc5c(c34)CCCCCC5)CC2)cc1; 6.49 µM
C=C1C(=O)O[C@H]2[C@H]1CC/C(COC(=O)NCCc1ccc(Br)cc1)=C\CC[C@@]1(C)O[C@@H]21; 1.72 µM
O=[N+]([O-])c1ccc(NC(c2ccccc2)c2ccc3cccnc3c2O)cc1 (stereo not drawn); 0.505 µM

Give GI50 for each of the items listed below.
1. Cc1cc(S(=O)(=O)Nc2nc3ccccc3s2)c(SCc2ccccc2)cc1Cl
2. O=C(Nc1cccc(Cl)c1)Nc1cc(C(F)(F)F)ccc1Cl

19.3 µM
3.25 µM

Give GI50 for each of the items listed below.
1. O=C(Nc1n[nH]c2cc(-c3ccc(F)cc3)ccc12)C1CC1
2. Nc1nc(N)c2c(n1)NC(c1ccc(Cl)cc1)C1CCc3ccccc3C1=N2 (stereo not drawn)
3. Cc1cccc(Nc2ncc(-c3ccccc3)o2)c1
4. CN1CCN(CCCn2c3c(sc4ncccc43)c(=O)n3nnc(-c4ccccc4)c23)CC1
5. Cc1cc(C2CC(O)C(CO)O2)c(Br)cc1Br (stereo not drawn)
6. CC(=O)OCc1cc[c]([Hg][Cl])o1
7. Cc1c(-c2c(F)cc(C(N)=O)c3[nH]c4c(c23)CC[C@H](C(C)(C)O)C4)cccc1-n1c(=O)c2cccc(F)c2n(C)c1=O

["9.29 µM", "8.58 µM", "> 25 µM", "15.1 µM", "> 100 µM", "19.4 µM", "3.84 µM"]

---

Tested on: OVCAR-3 ovarian
Assay: NCI tumour cell line growth inhibition, 48 h
Hi there, I'd appreciate the recorded GI50 for every entry that follows.

Record excerpt, results attached:
O=C(Nc1n[nH]c2cc(-c3ccc(F)cc3)ccc12)C1CC1; 6.33 µM
CC(=O)OCc1cc[c]([Hg][Cl])o1; 3.97 µM
Cc1c(-c2c(F)cc(C(N)=O)c3[nH]c4c(c23)CC[C@H](C(C)(C)O)C4)cccc1-n1c(=O)c2cccc(F)c2n(C)c1=O; 3.95 µM
Nc1ncnc2c1ncn2Cc1ccc(CCl)cc1; 14.3 µM
COc1cc(/C=C/[N+](=O)[O-])cc(OC)c1; 1.56 µM

Give GI50 for each of the items listed below.
1. COc1cc2cc(C(=O)Nc3ccccc3)c(N)nc2cc1OC
2. Cc1ccc2c(c1)n([O-])c(C(F)(F)F)c(C(=O)c1ccco1)[n+]2=O
3. CCCN1CCN(c2ccc3nc(-c4ccc5nc(-c6ccc(OCC)cc6)[nH]c5c4)[nH]c3c2)CC1
4. CC(C)Cc1cc(-c2cccn2C)c(C#N)c(=O)[nH]1
5. CN1c2cccc[c]2[Sn]([CH3])([CH3])[c]2ccccc21
6. COc1cc(N2CCN(C(C)C)CC2)ccc1Nc1nc(Nc2ccc(F)cc2C(N)=O)c2cc[nH]c2n1
7. Cc1cc(C(=O)NOCCO)c(Nc2ccc(I)cc2F)n(C)c1=O
8. CN1CCN(CCCn2c3c(sc4ncccc43)c(=O)n3nnc(-c4ccccc4)c23)CC1

50.9 µM
0.573 µM
1.99 µM
> 100 µM
< 0.0115 µM
3.08 µM
> 100 µM
1.81 µM

Data origin: PubChem BioAssay (NCI)
